- Assay comment: Everted gut sac transport of REG, mucosal to serosal
- Assay type: in vitro ADME, rat
- Condition context: male, Wistar, rat, pH 6.8; drug concentration 40 µM; read-out: Papp in everted gut sacs (abstract)
Endpoint label: Papp at 90 min, 40 µM (×10⁻⁶ cm/s)
Please give a number only; it is taken to be in ×10⁻⁶ cm/s.

Q. Could you share which Papp at 90 min, 40 µM value was measured for CCOc1cc(CC(=O)N[C@@H](CC(C)C)c2ccccc2N2CCCCC2)ccc1C(=O)O [REG, Repaglinide] ?
A. 12.3

----------
- Assay comment: Everted gut sac transport of REG, mucosal to serosal
- Type: in vitro ADME, rat
- Condition context: male, Wistar, rat, pH 6.8; drug concentration 100 µM; read-out: Papp in everted gut sacs (abstract)
Endpoint label: Papp at 90 min, 100 µM (×10⁻⁶ cm/s)
// note: answer is a bare numeric in ×10⁻⁶ cm/s

Q. What value of Papp at 90 min, 100 µM has been recorded for this entry: CCOc1cc(CC(=O)N[C@@H](CC(C)C)c2ccccc2N2CCCCC2)ccc1C(=O)O [REG, Repaglinide]
A. 32.9

----------
- System: P-gp
- Assay comment: Bi-directional transport of REG across Caco-2 cell monolayers
- Type: in vitro ADME
- Condition context: human, Caco-2, pH 7.4, with valspodar 5 µM, REG 40 µM + valspodar 5 µM, Caco-2, mean ± SD, n = 3; read-out: ER (efflux ratio, papp.BA/papp.AB)
Endpoint label: efflux ratio at 180 min, 40 µM
Just the number, please.

Q. # query: efflux ratio at 180 min, 40 µM | item CCOc1cc(CC(=O)N[C@@H](CC(C)C)c2ccccc2N2CCCCC2)ccc1C(=O)O [REG, Repaglinide] | system: P-gp
A. 0.68

----------
- Tested on: P-gp
- Assay comment: Bi-directional transport of REG across Caco-2 cell monolayers
- Assay type: in vitro ADME
- Condition context: human, Caco-2, pH 7.4, with verapamil 100 µM, REG 40 µM + verapamil 100 µM, Caco-2, mean ± SD, n = 3; read-out: ER (efflux ratio, papp.BA/papp.AB)
- Protocol: Caco-2 cells (purchased from Pasteur Institute of Iran) were grown on 75 cm^2 plastic culture flasks, containing 15% (V/V) fetal bovine serum (FBS), 50% RPMI 1640, 34% DMEM and 1% (V/V) penicillin–streptomycin at 37 °C in a 95% humidified air with 5% CO2. […] Apparent permeability coefficients (Papp) of REG were calculated in everted gut sac and Caco-2 cell line according to the below equation ([19]): […]
Endpoint label: efflux ratio at 180 min, 40 µM
Answer with a number only.

Q. Recorded efflux ratio at 180 min, 40 µM of CCOc1cc(CC(=O)N[C@@H](CC(C)C)c2ccccc2N2CCCCC2)ccc1C(=O)O [REG, Repaglinide] , please.
A. 0.61

----------
- Assay comment: Bi-directional transport of REG across Caco-2 cell monolayers
- Type: in vitro ADME
- Condition context: human, Caco-2, pH 7.4, REG 60 µM, Caco-2, mean ± SD, n = 3; read-out: ER (efflux ratio, papp.BA/papp.AB)
Endpoint label: efflux ratio at 180 min, 60 µM
Give a plain numeric answer without units written out.

Q. Request the reported efflux ratio at 180 min, 60 µM associated with CCOc1cc(CC(=O)N[C@@H](CC(C)C)c2ccccc2N2CCCCC2)ccc1C(=O)O [REG, Repaglinide]
A. 0.8

----------
- Assay comment: Bi-directional transport of REG across Caco-2 cell monolayers
- Type: in vitro ADME
- Condition context: human, pH 7.4; REG 20 µM, Caco-2, mean ± SD, n = 3
Endpoint label: Papp A→B at 180 min, 20 µM (×10⁻⁶ cm/s)
The answer is to be given in ×10⁻⁶ cm/s; state only the numeric part.

Q. Which Papp A→B at 180 min, 20 µM is listed for CCOc1cc(CC(=O)N[C@@H](CC(C)C)c2ccccc2N2CCCCC2)ccc1C(=O)O [REG, Repaglinide] ?
A. 16.7

----------
- Assay comment: Everted gut sac transport of REG, mucosal to serosal
- Type: in vitro ADME, rat
- Condition context: male, Wistar; REG 20 µM, mucosal to serosal, rat jejunum, pH 6.8, mean ± SD, n = 3; read-out: Apparent permeability coefficient (Papp) across everted gut sacs
- Procedure: The everted sac method was used as previously described ([11]). All animal experiments were approved by the local ethics committee of Shahid Beheshti University of Medical Sciences (Tehran, Iran). Male Wistar rats weighing 230 and 250 g were fasted for 24 h but were allowed free access to water. […] Apparent permeability coefficients (Papp) of REG were calculated in everted gut sac and Caco-2 cell line according to the below equation ([19]): […]
Endpoint label: Papp at 90 min, 20 µM (×10⁻⁶ cm/s)
Respond numerically; units are ×10⁻⁶ cm/s and should not be typed.

Q. // query Papp at 90 min, 20 µM value for entry CCOc1cc(CC(=O)N[C@@H](CC(C)C)c2ccccc2N2CCCCC2)ccc1C(=O)O [REG, Repaglinide]
A. 11.6

----------
- Assay comment: Bi-directional transport of REG across Caco-2 cell monolayers
- Format: in vitro ADME
- Condition context: human, pH 7.4; REG 60 µM, Caco-2, mean ± SD, n = 3
Endpoint label: Papp B→A at 180 min, 60 µM (×10⁻⁶ cm/s)
Answer with a number only, understood to be in ×10⁻⁶ cm/s.

Q. Consider the compound CCOc1cc(CC(=O)N[C@@H](CC(C)C)c2ccccc2N2CCCCC2)ccc1C(=O)O [REG, Repaglinide] and give its measured Papp B→A at 180 min, 60 µM.
A. 14.6

----------
- Assay comment: Bi-directional transport of REG across Caco-2 cell monolayers
- Type: in vitro ADME
- Condition context: human, Caco-2, pH 7.4, REG 40 µM, Caco-2, mean ± SD, n = 3; read-out: ER (efflux ratio, papp.BA/papp.AB)
Endpoint label: efflux ratio at 180 min, 40 µM
Reply: number alone, nothing else.

Q. I would be grateful if you could share the reported efflux ratio at 180 min, 40 µM for CCOc1cc(CC(=O)N[C@@H](CC(C)C)c2ccccc2N2CCCCC2)ccc1C(=O)O [REG, Repaglinide] .
A. 0.65

----------
- Assay comment: Bi-directional transport of REG across Caco-2 cell monolayers
- Assay type: in vitro ADME
- Condition context: human, pH 7.4; REG 60 µM, Caco-2, mean ± SD, n = 3
Endpoint label: Papp A→B at 180 min, 60 µM
Number first, unit second.

Q. Query: Papp A→B at 180 min, 60 µM; subject: CCOc1cc(CC(=O)N[C@@H](CC(C)C)c2ccccc2N2CCCCC2)ccc1C(=O)O [REG, Repaglinide]
A. 18.3 ×10⁻⁶ cm/s

----------
- Assay comment: Bi-directional transport of REG across Caco-2 cell monolayers
- Format: in vitro ADME
- Condition context: human, pH 7.4; REG 40 µM, Caco-2, mean ± SD, n = 3
Endpoint label: Papp B→A at 180 min, 40 µM (×10⁻⁶ cm/s)
Expressed in ×10⁻⁶ cm/s, but write only the number.

Q. Any idea what its Papp B→A at 180 min, 40 µM is? The compound is CCOc1cc(CC(=O)N[C@@H](CC(C)C)c2ccccc2N2CCCCC2)ccc1C(=O)O [REG, Repaglinide]
A. 11.9

----------
- System: P-gp
- Assay comment: Bi-directional transport of REG across Caco-2 cell monolayers
- Format: in vitro ADME
- Condition context: human, pH 7.4, with valspodar 5 µM; REG 40 µM + valspodar 5 µM, Caco-2, mean ± SD, n = 3
Endpoint label: Papp A→B at 180 min, 40 µM (×10⁻⁶ cm/s)
Express the result in ×10⁻⁶ cm/s but write the number alone.

Q. So what does the record say about Papp A→B at 180 min, 40 µM for CCOc1cc(CC(=O)N[C@@H](CC(C)C)c2ccccc2N2CCCCC2)ccc1C(=O)O [REG, Repaglinide] ?
A. 16.4
